test: The drug is tested on WLS-220 corresponding to human gut metagenome with ENA study accession number: PRJEB37062 and ENA sample accession number: ERS12561769 for biotransformation under anaerobic condition. The drug concentrations were measured over 9 timepoints collected between 0 and 24 hours of incubation by liquid-chromatography-coupled mass spectrometry (LC–MS); details: 2 µM; also: call rule not given here
READOUT KIND: Bacterial Biotransformation

CC[C@H](C)C(=O)O[C@H]1CCC=C2C=C[C@H](C)[C@H](CC[C@@H]3C[C@@H](O)CC(=O)O3)[C@H]21
Compound metabolized
CCCN(CCC)CCc1cccc2c1CC(=O)N2
Compound metabolized
CN1CCC[C@@H]1CCO[C@](C)(c1ccccc1)c1ccc(Cl)cc1.O=C(O)/C=C/C(=O)O [CLEMASTINE FUMARATE]
Compound NOT metabolized
CC(C)(C)NC[C@H](O)COc1nsnc1N1CCOCC1.O=C(O)/C=C\C(=O)O [TIMOLOL MALEATE]
Compound NOT metabolized

# get_value(readout='Bacterial Biotransformation', item= CN(C)CCOC(C)(c1ccccc1)c1ccccn1.O=C(O)CCC(=O)O (stereo unspecified) [DOXYLAMINE SUCCINATE] )
Compound NOT metabolized

# get_value(readout='Bacterial Biotransformation', item= CC(=O)Oc1ccc(C(c2ccc(OC(C)=O)cc2)c2ccccn2)cc1 )
Compound metabolized

Source of measurements: ChEMBL document CHEMBL5724914
